- assay-details: in vivo
- assay-context: female, cynomolgus, cynomolgus monkey, sc, 1.5 mg/kg
Where a name gives a salt, the structure may show the parent alone.
parameter: Cmax

INPUT: Look up Cmax for this compound: CN1CCc2cccc3c2[C@H]1Cc1ccc(O)c(O)c1-3 [apomorphine HCl, Apomorphine hydrochloride]
OUTPUT: ~10.6 ng/mL

---

- assay-details: in vivo
- assay-context: female, cynomolgus, cynomolgus monkey, sc, 1.5 mg/kg
Counter-ions that a name gives are not always drawn.
parameter: Tmax (h)
Give bare numbers, in h.

INPUT: Would you kindly share the measured Tmax for CN1CCc2cccc3c2[C@H]1Cc1ccc(O)c(O)c1-3 [apomorphine HCl, Apomorphine hydrochloride] ?
OUTPUT: 4

---

- assay-details: in vivo
- assay-context: female, cynomolgus monkey, sc, 1.5 mg/kg
Structures can show the parent of a compound that is named as a salt.
parameter: CL/F (mL/min/kg)
One number for each entry, in mL/min/kg.

INPUT: Name the reported CL/F value associated with the compound CN1CCc2cccc3c2[C@H]1Cc1ccc(O)c(O)c1-3 [apomorphine HCl, Apomorphine hydrochloride]
OUTPUT: 289

---

- assay-details: in vivo
- assay-context: female, cynomolgus monkey, sc, 1.5 mg/kg
Counter-ions that a name gives are not always drawn.
parameter: Cmax (ng/mL)
Numbers only, in ng/mL.

INPUT: I have this compound here, CN1CCc2cccc3c2[C@H]1Cc1ccc(O)c(O)c1-3 [apomorphine HCl, Apomorphine hydrochloride] , and I need its recorded Cmax.
OUTPUT: 10.6

---

- assay-details: in vivo
- assay-context: female, cynomolgus, cynomolgus monkey, sc, 1.5 mg/kg
Structures can show the parent of a compound that is named as a salt.
parameter: AUC(0-t)

INPUT: Given the entry CN1CCc2cccc3c2[C@H]1Cc1ccc(O)c(O)c1-3 [apomorphine HCl, Apomorphine hydrochloride] , report its measured AUC(0-t).
OUTPUT: 89.8 ng·h/mL

Reference for the values: patent US11766432B2
